Reference for the values: ChEMBL document CHEMBL6083235

Tested on: Pseudomonas aeruginosa
Assay: Inhibition of Pseudomonas aeruginosa IMPDH delta Bateman domain extracted form Escherichia coli BL21 (DE3)pDIA17 assessed as formation of NADH at 50 uM relative to control
PARAMETER: inhibition (%)
Give the value in % but do not write % after it.

Input: Look up inhibition: CC(C)(NC(=O)Nc1ccc(Cl)c([N+](=O)[O-])c1)c1cccc(-c2cc[nH]n2)c1
Output: 98

Input: Look up inhibition: CC(C)(NC(=O)Nc1ccc(Cl)c([N+](=O)[O-])c1)c1cccc(-c2c[nH]cn2)c1
Output: 99

Input: Look up inhibition: CC(C)(NC(=O)NCc1ccccc1)c1cccc(-c2ccco2)c1
Output: 6

Input: Look up inhibition: CC(C)(NC(=O)Nc1ccc(Cl)c([N+](=O)[O-])c1)c1cccc(-c2cn[nH]c2)c1
Output: 99

---

Provide the reported pIC50 of each item.
Biological target: Inosine-5'-monophosphate dehydrogenase (Pseudomonas aeruginosa (strain ATCC 15692 / DSM 22644 / CIP 104116 / JCM14847 / LMG 12228 / 1C / PRS 101 / PAO1), UniProt Q9HXM5)
Sequence (Q9HXM5 whole entry): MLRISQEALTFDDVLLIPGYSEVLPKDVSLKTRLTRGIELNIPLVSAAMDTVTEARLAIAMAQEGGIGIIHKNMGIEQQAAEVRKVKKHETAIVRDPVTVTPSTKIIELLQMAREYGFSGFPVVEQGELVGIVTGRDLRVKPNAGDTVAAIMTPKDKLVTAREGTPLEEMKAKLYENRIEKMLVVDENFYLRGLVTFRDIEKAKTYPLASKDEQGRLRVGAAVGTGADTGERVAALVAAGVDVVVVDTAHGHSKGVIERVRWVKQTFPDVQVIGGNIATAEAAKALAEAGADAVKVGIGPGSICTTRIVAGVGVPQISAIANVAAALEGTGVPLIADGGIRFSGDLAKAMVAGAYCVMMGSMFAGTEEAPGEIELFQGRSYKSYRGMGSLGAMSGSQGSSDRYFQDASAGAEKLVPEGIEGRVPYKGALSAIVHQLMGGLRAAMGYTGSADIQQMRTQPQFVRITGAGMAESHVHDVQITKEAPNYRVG
Assay: Inhibition of Pseudomonas aeruginosa IMPDH extracted form Escherichia coli BL21 (DE3)pDIA17 assessed as formation of NADH
Settings: read-out: I50
// pIC50: -log10(molar conc.)

Input: Look up pIC50: CC(C)(NC(=O)Nc1ccc(Cl)c([N+](=O)[O-])c1)c1cccc(-c2cn[nH]c2)c1
Output: 6.89

Input: Look up pIC50: CCOc1ncccc1-c1cccc(C(C)(C)NC(=O)Nc2ccc(Cl)c([N+](=O)[O-])c2)c1
Output: 6.23

Input: Look up pIC50: CC(C)(NC(=O)Nc1ccc(Cl)c([N+](=O)[O-])c1)c1cccc(-c2c[nH]cn2)c1
Output: 7.00

Input: Look up pIC50: CCOC(=O)n1ccc(-c2cccc(C(C)(C)NC(=O)Nc3ccc(Cl)c([N+](=O)[O-])c3)c2)n1
Output: 6.80

Input: Look up pIC50: CC(C)(NC(=O)Nc1ccc(Cl)c([N+](=O)[O-])c1)c1cccc(-c2nccs2)c1
Output: 6.96

Input: Look up pIC50: CCOC(=O)n1cc(-c2cccc(C(C)(C)NC(=O)Nc3ccc(Cl)c([N+](=O)[O-])c3)c2)cn1
Output: 6.38

Input: Look up pIC50: CC(C)(NC(=O)Nc1ccc(Cl)c([N+](=O)[O-])c1)c1cccc(-c2cccs2)c1
Output: 6.85

Input: Look up pIC50: CC(C)(NC(=O)Nc1ccc(Cl)c([N+](=O)[O-])c1)c1cccc(-c2cccnc2F)c1
Output: 6.62

Input: Look up pIC50: CC(C)(NC(=O)Nc1ccc(Cl)c([N+](=O)[O-])c1)c1cccc(-c2cc[nH]n2)c1
Output: 6.96

Input: Look up pIC50: CC(C)(NC(=O)Nc1ccc(Cl)c([N+](=O)[O-])c1)c1cccc(-c2ccco2)c1
Output: 6.59

---

Experiment: Metabolic stability in mouse liver microsomes assessed as recovery in presence of NADPH measured after 120 mins
Assay type: ADME, Microsome
Details: read-out: Drug recovery
PARAMETER: remaining at 2 h

Input: Look up remaining at 2 h: CC(C)(NC(=O)Nc1ccc(Cl)c([N+](=O)[O-])c1)c1cccc(-c2cn[nH]c2)c1
Output: > 95%

Input: Look up remaining at 2 h: CC(C)(NC(=O)Nc1ccc(Cl)c([N+](=O)[O-])c1)c1cccc(-c2cc[nH]n2)c1
Output: > 95%

Input: Look up remaining at 2 h: CC(C)(NC(=O)Nc1ccc(Cl)c([N+](=O)[O-])c1)c1cccc(-c2c[nH]cn2)c1
Output: > 95%

---

Biological target: Inosine-5'-monophosphate dehydrogenase (Pseudomonas aeruginosa (strain ATCC 15692 / DSM 22644 / CIP 104116 / JCM14847 / LMG 12228 / 1C / PRS 101 / PAO1)) (UniProt Q9HXM5)
Sequence (Q9HXM5 as listed by the source): as the sequence (Q9HXM5 whole entry) above
Experiment: Inhibition of Pseudomonas aeruginosa IMPDH extracted form Escherichia coli BL21 (DE3)pDIA17 assessed as formation of NADH at 50 uM relative to control
PARAMETER: inhibition (%)
Give the value in % but do not write % after it.

Input: Look up inhibition: CC(C)(NC(=O)Nc1ccc(Cl)c([N+](=O)[O-])c1)c1cccc(-c2cccs2)c1
Output: 96

Input: Look up inhibition: CCOC(=O)n1ccc(-c2cccc(C(C)(C)NC(=O)Nc3ccc(Cl)c([N+](=O)[O-])c3)c2)n1
Output: 98

Input: Look up inhibition: CC(C)(NC(=O)Nc1ccc(Cl)c([N+](=O)[O-])c1)c1cccc(-c2nccs2)c1
Output: 97

Input: Look up inhibition: CC(C)(NC(=O)NCc1ccccc1)c1cccc(-c2cccs2)c1
Output: 15

Input: Look up inhibition: CC(C)(NC(=O)Nc1ccc(Cl)c([N+](=O)[O-])c1)c1cccc(-c2nccn2Cc2ccccc2)c1
Output: 63

Input: Look up inhibition: CC(C)(NC(=O)Nc1ccc(Cl)c([N+](=O)[O-])c1)c1cccc(-c2c[nH]cn2)c1
Output: 99

Input: Look up inhibition: CC(C)(NC(=O)NCc1ccccc1)c1cccc(-c2cn[nH]c2)c1
Output: 29

Input: Look up inhibition: CC(C)(NC(=O)NCc1ccccc1)c1cccc(-c2cc[nH]n2)c1
Output: 59

---

Assay: Inhibition of Pseudomonas aeruginosa IMPDH delta Bateman domain in presence of detergent by detergent-sensitive enzyme-inhibition assay
PARAMETER: pIC50
// pIC50: -log10(molar conc.)

Input: Look up pIC50: CC(C)(NC(=O)Nc1ccc(Cl)c([N+](=O)[O-])c1)c1cccc(-c2c[nH]cn2)c1
Output: 6.85
